- PROTOCOL: Binding affinity to synthetic c-MYC G-quadruplex DNA assessed as change in melting temperature at 4 mol equiv in presence of 20 mM KCl buffer by circular dichroism spectroscopic analysis
Each entry below carries its recorded ΔTm.

Sample records with ΔTm:
- N=C(N)N/N=C/c1ccc2c(/C=N/NC(=N)N)c(Cl)n(-c3ccccc3)c2c1: > 20 °C
- Cn1c(Cl)c(/C=N/NC(=N)N)c2ccc(/C=N/NC(=N)N)cc21: > 20 °C
- C(=N\NC1=NCCN1)/c1c(-c2ccccc2)nc2n1ccc1nc(-c3ccccc3)c(/C=N/NC3=NCCN3)n12: > 15 °C
- CN1C(=C2\C(=N\Nc3ccccn3)c3ccccc3N2C)/C(=N/Nc2ccccn2)c2ccccc21: 1.6 °C
- CN1C(=C2\C(=N\NC(=N)N)c3ccccc3N2C)/C(=N/NC(=N)N)c2ccccc21: 11 °C
- Br.O=Cc1c(-c2ccccc2)nc2n1ccc1nc(-c3ccccc3)c(/C=N/NC3=NCCN3)n12: > 20 °C
- N=C(N)N/N=C/c1c(-c2ccccc2)nc2ccn3c(/C=N/N=C(N)N)c(-c4ccccc4)nc3n12: > 20 °C
- Cn1c(Cl)c(/C=N/NC(=N)N)c2cc3c(/C=N/NC(=N)N)c(Cl)n(C)c3cc21: > 20 °C

# ΔTm of "N=C(N)N/N=C/c1c(-c2ccsc2)nc2n1ccc1nc(-c3ccsc3)c(/C=N/NC(=N)N)n12" = > 20 °C

The reported value for "C(=N\Nc1ccccn1)/c1c(-c2ccccc2)nc2n1ccc1nc(-c3ccccc3)c(/C=N/Nc3ccccn3)n12" in terms of ΔTm is -0.2 °C
